tested on: K562 CRISPRi cells; assay: Constant region variant library pooled growth screen, K562; assay type: cell-based, human; conditions: sgRNA constant region variant; activity relative to unmodified constant region cr995; mean CRISPRi activity
For each of the molecules below, state its Mean relative activity.
Answer with the value's number alone.

Q) Name the recorded Mean relative activity of the molecule listed here: cr031 (nucleic acid, listed as DNA, chemistry not fully specified) guide: GTAAAAGAGCTAAGCTGGAAACAGCATAGCAAGTTTAAATAAGGCTAGTCCGTTATCAACTTGAAAAAGTGGCACCGAGTCGGTGCT
A) 0.01677

Q) Specify Mean relative activity for cr512 (nucleic acid, listed as DNA, chemistry not fully specified) guide: GTTTAAGAGCTAAGCTGGAAACAGCATAGCAAGGTTAAATAAGCCTAGTGCGTTATCAACTTGAAAAAGTGGCACCGAGTCGGTGCT and stop.
A) 0.007414

Q) Fill in reported Mean relative activity for this entry: cr272 (nucleic acid, listed as DNA, chemistry not fully specified) guide: GTTTAAGAGCTAAGCTGGAAACAGCATAGCCACTTTAAATAAGGCTAGTCCGTTATCAACTTGAAAAAGTGGCACCGAGTCGGTGCT
A) 0.00638

Q) Please look at this molecule and report its Mean relative activity: cr336 (nucleic acid, listed as DNA, chemistry not fully specified) guide: GTTTAAGAGCTAAGCTGGAAACAGCATAGCAAGTTTAAATAAGGGTACTCCGTTATCAAATTGAAAAATTGGCACCCAGTGGGTGCT
A) 0.01616

Q) Note down Mean relative activity recorded for cr744 (nucleic acid, listed as DNA, chemistry not fully specified) guide: GTTTAAGAGCTAAGCTGGAAACAGCATAGCAAGATTAAATCAGGCTAGTCCGTTATCAACTTGTAAAAGTGGCACCGAGTCGGTGCT
A) 0.006349

Q) Quote Mean relative activity reported for cr864 (nucleic acid, listed as DNA, chemistry not fully specified) guide: GTTTAAGAGCTAAGCTGGAAACAGCATAACAAGTTTAAATTAGGCTAGTCCGTTATCAACTTGAAAAAGTGGCACCGAGTCGGTGCT please.
A) 0.01678

Q) Output measured Mean relative activity for this item: cr862 (nucleic acid, listed as DNA, chemistry not fully specified) guide: GTTTAAGAGCTAAGCTGGAAACAGCATATCACCTTTAAATAAGGCTAGTCCGTTATCAACTTGAAAAAGTGGCACCGAGTCGGTGCT
A) 0.007887

Q) Output Mean relative activity of cr807 (nucleic acid, listed as DNA, chemistry not fully specified) guide: GTTTAAGAGCTAAGCTGGAAACAGCATAGCAAGTTTAAATTAGGCTAGTCCGTTATCAACTTGAAAAAGTGGCACCGTGTCGGTGCT
A) 0.00776

Q) Give reported Mean relative activity value for cr281 (nucleic acid, listed as DNA, chemistry not fully specified) guide: GTTTAAGAGCTAAGCTGGAAACAGCATAGCAAGTTTAAATAAGGCTAGTCCGTTATCAACTTGAAAAAGTGGCTGGCAGTCCGAGCT
A) 0.006802

Q) # return recorded Mean relative activity for entry cr841 (nucleic acid, listed as DNA, chemistry not fully specified) guide: GTTTAAGAGCTAAGCTGGAAACAGCATAGCAAGGTTAAATAAGGCTAGTCCGTTATCACCTTGAAAAAGGGGCACCGAGTCGGTGCT
A) 0.01636

Q) Identify Mean relative activity associated with the molecule cr475 (nucleic acid, listed as DNA, chemistry not fully specified) guide: GTTTAAGAGCTAAGCTGGAAACAGCATAGCAAGTTTAAATTAGGCTAGTCCGTTATCAACTTGATAAAGTGGCACCGAGTCGGTGCT
A) 0.0113

Q) Provide Mean relative activity value for the following molecule: cr268 (nucleic acid, listed as DNA, chemistry not fully specified) guide: GTTTAAGAGCTAAGCTGGAAACAGCATAGCAAGGTTAAATAAGGCTAGTCCGTTATCAACTTGAAAAAGTGGCACAGAGTCTGTGCT
A) 0.01166

Q) Output measured Mean relative activity for this item: cr100 (nucleic acid, listed as DNA, chemistry not fully specified) guide: GTTTAAGAGCTAAGCTGGAAACAGCATAGCAAGTTTAAATGAGGCTAGCCCGTTATCAACTTGAAAAAGTGGCACCGAGTCGGTGCT
A) 0.005923

Q) Respond only with Mean relative activity recorded for cr528 (nucleic acid, listed as DNA, chemistry not fully specified) guide: GTTTAAGAGCTAAGCTGGAAACAGCATAGCCGCTTTAAATAAGGCTAGTCCGTTATCAACTTGAAAAAGTGGCACCGAGTCGGTGCT
A) 0.01243
